Target: UniProt:Q9BWU1
Sequence (Q9BWU1 whole entry, species assumed): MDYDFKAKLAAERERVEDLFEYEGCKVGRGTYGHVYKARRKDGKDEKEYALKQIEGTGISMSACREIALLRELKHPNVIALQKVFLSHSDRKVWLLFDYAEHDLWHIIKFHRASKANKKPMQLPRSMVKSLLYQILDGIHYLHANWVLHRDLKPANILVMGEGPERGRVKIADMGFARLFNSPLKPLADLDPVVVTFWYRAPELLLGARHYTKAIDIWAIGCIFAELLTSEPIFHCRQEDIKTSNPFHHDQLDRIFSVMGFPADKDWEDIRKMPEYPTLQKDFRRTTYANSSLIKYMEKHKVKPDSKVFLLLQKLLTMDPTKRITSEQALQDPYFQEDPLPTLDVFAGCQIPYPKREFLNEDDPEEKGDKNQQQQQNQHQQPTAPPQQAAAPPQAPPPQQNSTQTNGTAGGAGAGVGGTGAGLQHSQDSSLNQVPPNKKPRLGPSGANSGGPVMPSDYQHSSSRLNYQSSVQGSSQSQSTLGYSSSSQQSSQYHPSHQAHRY
Test: Kinase panel test, binding-inhibiting activity against CDK19
Method: In the kinase panel test, 0.1 μM or 1 μM (that is, the seventh or sixth power of the −Log10 value) of each test compound was added to each of the kinases ALK4, ALK5, CDK8, and CDK19, and binding-inhibiting activity thereof was measured from 0 to 100%.
property.name: IC50 (nM)
Give the number; nM is assumed, so skip it.

Record summary for CCOP(=O)(Cc1ccc(NC(=O)/C=C/c2cnn(C)c2-c2ccc(F)cc2)cc1)OCC : reported IC50 = 17.4

* * *

Target: CDK8 (Homo sapiens, UniProt P49336)
Sequence (P49336 whole entry, species assumed): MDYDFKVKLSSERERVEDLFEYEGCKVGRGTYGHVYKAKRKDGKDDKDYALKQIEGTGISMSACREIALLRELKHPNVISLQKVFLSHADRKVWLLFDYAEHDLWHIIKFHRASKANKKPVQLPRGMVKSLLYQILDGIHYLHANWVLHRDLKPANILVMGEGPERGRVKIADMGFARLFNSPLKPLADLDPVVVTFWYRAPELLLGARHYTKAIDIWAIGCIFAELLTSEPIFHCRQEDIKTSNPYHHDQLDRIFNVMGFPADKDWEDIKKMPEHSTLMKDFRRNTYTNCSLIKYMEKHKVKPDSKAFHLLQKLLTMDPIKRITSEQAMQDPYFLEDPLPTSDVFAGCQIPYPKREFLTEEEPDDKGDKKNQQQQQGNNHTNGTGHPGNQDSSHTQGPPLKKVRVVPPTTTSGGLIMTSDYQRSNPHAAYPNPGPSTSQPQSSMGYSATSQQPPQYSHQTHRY
Assay: Kinase panel test, binding-inhibiting activity against CDK8
property.name: IC50 (µM)
Give the number; µM is assumed, so skip it.

Record summary for CCOP(=O)(Cc1ccc(NC(=O)/C=C/c2cnn(C)c2-c2ccc(F)cc2)cc1)OCC [Compound 1] : reported IC50 = 0.0537

* * *

Biological target: UniProtKB P36897
Sequence (P36897 34-503, species assumed): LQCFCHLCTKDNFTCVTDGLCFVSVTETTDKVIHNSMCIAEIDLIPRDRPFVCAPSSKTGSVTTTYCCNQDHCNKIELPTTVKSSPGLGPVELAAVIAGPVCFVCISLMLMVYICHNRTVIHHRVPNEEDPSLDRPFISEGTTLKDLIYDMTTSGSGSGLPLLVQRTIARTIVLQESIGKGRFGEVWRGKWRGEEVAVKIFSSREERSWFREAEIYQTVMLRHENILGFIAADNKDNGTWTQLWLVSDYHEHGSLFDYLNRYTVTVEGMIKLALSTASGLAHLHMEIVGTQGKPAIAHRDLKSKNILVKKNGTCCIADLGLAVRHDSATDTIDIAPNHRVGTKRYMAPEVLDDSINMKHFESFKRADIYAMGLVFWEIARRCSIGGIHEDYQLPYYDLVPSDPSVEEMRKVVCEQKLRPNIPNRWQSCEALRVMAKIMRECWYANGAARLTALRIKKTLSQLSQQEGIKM
Assay: Kinase panel test, binding-inhibiting activity against ALK5
property.name: IC50

Record summary for CCOP(=O)(Cc1ccc(NC(=O)/C=C/c2cnn(C)c2-c2ccc(F)cc2)cc1)OCC [Compound 1] : reported IC50 = ≥ 1000 nM
